Attribution: ChEMBL document CHEMBL1151705

# Test system: Haemophilus influenzae
# assay comment: Antimicrobial activity against drug-susceptible Haemophilus influenzae 1 after 20 hrs by agar dilution method
# Format: functional
value type: MIC (µg/mL)
Express the result in µg/mL but write the number alone.

These recorded examples may help you get a feel for the data.
INSERT INTO results (compound, value_observed) VALUES
  ('CCOC(=O)[C@H]1[C@H](C)O[C@@H](O[C@H]2[C@H](N(C)C)[C@@H](O)[C@H](O[C@H]3[C@@H](CC=O)C[C@@H](C)[C@@H](O)CN(C)CC(CCCc4ccnc5ccccc45)CCOC(=O)C[C@@H](OC(=O)CC)[C@@H]3OC)O[C@@H]2C)C[C@@]1(C)O (stereo in doubt; form 2)', 16),
  ('CCOC(=O)[C@H]1[C@H](C)O[C@@H](O[C@H]2[C@H](N(C)C)[C@@H](O)[C@H](O[C@H]3[C@@H](CC=O)C[C@@H](C)[C@@H](O)CN(C)CCC(CCCc4cnc5ccccc5c4)NC(=O)C[C@@H](OC(=O)CC)[C@@H]3OC)O[C@@H]2C)C[C@@]1(C)O (stereo in doubt)', 32);

// CCOC(=O)[C@H]1[C@H](C)O[C@@H](O[C@H]2[C@H](N(C)C)[C@@H](O)[C@H](O[C@H]3[C@@H](CC=O)C[C@@H](C)[C@@H](O)CN(C)CC(/C=C/Cc4cnc5ccccc5c4)CCOC(=O)C[C@@H](OC(=O)CC)[C@@H]3OC)O[C@@H]2C)C[C@@]1(C)O (stereo in doubt; form 2) : MIC value = 64

Data point: CCOC(=O)[C@H]1[C@H](C)O[C@@H](O[C@H]2[C@H](N(C)C)[C@@H](O)[C@H](O[C@H]3[C@@H](CC=O)C[C@@H](C)[C@@H](O)CN(C)CCC(CCCc4ccnc5ccccc45)NC(=O)C[C@@H](OC(=O)CC)[C@@H]3OC)O[C@@H]2C)C[C@@]1(C)O (stereo in doubt; form 2) ; MIC = 64

MIC for CCOC(=O)[C@H]1[C@H](C)O[C@@H](O[C@H]2[C@H](N(C)C)[C@@H](O)[C@H](O[C@H]3[C@@H](CC=O)C[C@@H](C)[C@@H](O)CN(C)CCC(C/C=C/c4ccnc5ccccc45)NC(=O)C[C@@H](OC(=O)CC)[C@@H]3OC)O[C@@H]2C)C[C@@]1(C)O (stereo in doubt) is 64

The measured MIC associated with CCOC(=O)[C@H]1[C@H](C)O[C@@H](O[C@H]2[C@H](N(C)C)[C@@H](O)[C@H](O[C@H]3[C@@H](CC=O)C[C@@H](C)[C@@H](O)CN(C)CC(/C=C/Cc4ccnc5ccccc45)CCOC(=O)C[C@@H](OC(=O)CC)[C@@H]3OC)O[C@@H]2C)C[C@@]1(C)O (stereo in doubt; form 2) reads 32

Just so you know, measured MIC for CCOC(=O)[C@H]1[C@H](C)O[C@@H](O[C@H]2[C@H](N(C)C)[C@@H](O)[C@H](O[C@H]3[C@@H](CC=O)C[C@@H](C)[C@@H](O)CN(C)CCC(C/C=C/c4cnc5ccccc5c4)NC(=O)C[C@@H](OC(=O)CC)[C@@H]3OC)O[C@@H]2C)C[C@@]1(C)O (stereo in doubt; form 2) came out at 64

Note to self: MIC recorded for CCOC(=O)[C@H]1[C@H](C)O[C@@H](O[C@H]2[C@H](N(C)C)[C@@H](O)[C@H](O[C@H]3[C@@H](CC=O)C[C@@H](C)[C@@H](O)CN(C)CCC(/C=C/Cc4ccnc5ccccc45)NC(=O)C[C@@H](OC(=O)CC)[C@@H]3OC)O[C@@H]2C)C[C@@]1(C)O (stereo in doubt) was 32

Noted for CCOC(=O)[C@H]1[C@H](C)O[C@@H](O[C@H]2[C@H](N(C)C)[C@@H](O)[C@H](O[C@H]3[C@@H](CC=O)C[C@@H](C)[C@@H](O)CN(CCCCc4ccccc4)CCC(C)NC(=O)C[C@@H](OC(=O)CC)[C@@H]3OC)O[C@@H]2C)C[C@@]1(C)OC(C)=O (stereo in doubt; form 2) : its MIC reads 32

====

# Test system: Streptococcus pneumoniae
# assay comment: Antimicrobial activity against Streptococcus pneumoniae 10 expressing mefA after 20 hrs by agar dilution method
# Format: functional
# experimental setup: Streptococcus pneumoniae, 20 h; read-out: MIC
value type: MIC (µg/mL)
The reply should be a number in µg/mL, with the unit left off.

Consider the following illustrative entries.
INSERT INTO measurements (compound, scale_unit, value_observed) VALUES
  ('CCOC(=O)[C@H]1[C@H](C)O[C@@H](O[C@H]2[C@H](N(C)C)[C@@H](O)[C@H](O[C@H]3[C@@H](CC=O)C[C@@H](C)[C@@H](OC(C)=O)CN(C)CCN(CCCCc4ccccc4)C(=O)C[C@@H](OC(=O)CC)[C@@H]3OC)O[C@@H]2C)C[C@@]1(C)OC(C)=O', 'µg/mL', 0.5),
  ('CCOC(=O)[C@H]1[C@H](C)O[C@@H](O[C@H]2[C@H](N(C)C)[C@@H](O)[C@H](O[C@H]3[C@@H](CC=O)C[C@@H](C)[C@@H](O)CN(C)CCC(C/C=C/c4ccnc5ccccc45)NC(=O)C[C@@H](OC(=O)CC)[C@@H]3OC)O[C@@H]2C)C[C@@]1(C)O (single isomer, unassigned)', 'µg/mL', 0.25),
  ('CCOC(=O)[C@H]1[C@H](C)O[C@@H](O[C@H]2[C@H](N(C)C)[C@@H](O)[C@H](O[C@H]3[C@@H](CC=O)C[C@@H](C)[C@@H](OC(C)=O)CN(CCCCc4ccccc4)CCNC(=O)C[C@@H](OC(=O)CC)[C@@H]3OC)O[C@@H]2C)C[C@@]1(C)OC(C)=O', 'µg/mL', 0.5);

// next entry
Looking up CCOC(=O)[C@H]1[C@H](C)O[C@@H](O[C@H]2[C@H](N(C)C)[C@@H](O)[C@H](O[C@H]3[C@@H](CC=O)C[C@@H](C)[C@@H](O)CN(CCCCc4ccccc4)CCC[C@@H](C)OC(=O)C[C@@H](OC(=O)CC)[C@@H]3OC)O[C@@H]2C)C[C@@]1(C)OC(C)=O , I found its MIC recorded as 0.06

====

# Test system: Streptococcus pneumoniae
# assay comment: Antimicrobial activity against Streptococcus pneumoniae 9 expressing mefA after 20 hrs by agar dilution method
# Type: functional
Overview of recorded MIC for various molecules

Below: 2 molecules and their reported MIC.
INSERT INTO assay_data (molecule, value_observed) VALUES
  ('CCOC(=O)[C@H]1[C@H](C)O[C@@H](O[C@H]2[C@H](N(C)C)[C@@H](O)[C@H](O[C@H]3[C@@H](CC=O)C[C@@H](C)[C@@H](O)CN(C)CCC(CCCc4cnc5ccccc5c4)NC(=O)C[C@@H](OC(=O)CC)[C@@H]3OC)O[C@@H]2C)C[C@@]1(C)O (stereo in doubt)', '0.06 µg/mL'),
  ('CCOC(=O)[C@H]1[C@H](C)O[C@@H](O[C@H]2[C@H](N(C)C)[C@@H](O)[C@H](O[C@H]3[C@@H](CC=O)C[C@@H](C)[C@@H](O)CN(C)CC(/C=C/Cc4cnc5ccccc5c4)CCOC(=O)C[C@@H](OC(=O)CC)[C@@H]3OC)O[C@@H]2C)C[C@@]1(C)O (stereo in doubt; form 1)', '0.015 µg/mL');

Field: next molecule
// MIC value for CCOC(=O)[C@H]1[C@H](C)O[C@@H](O[C@H]2[C@H](N(C)C)[C@@H](O)[C@H](O[C@H]3[C@@H](CC=O)C[C@@H](C)[C@@H](O)CN(C)CCC(/C=C/Cc4ccnc5ccccc45)NC(=O)C[C@@H](OC(=O)CC)[C@@H]3OC)O[C@@H]2C)C[C@@]1(C)O (stereo in doubt) : 0.25 µg/mL

====

# Tested on: Streptococcus pneumoniae
# assay comment: Antimicrobial activity against Streptococcus pneumoniae 10 expressing mefA after 20 hrs by agar dilution method
# Format: functional
# experimental setup: Streptococcus pneumoniae, 20 h; read-out: MIC
In this section, each of the molecules is paired with its reported MIC.
Give the value in µg/mL but do not write µg/mL after it.

INSERT INTO results (molecule, target_or_test_system, value_observed) VALUES
  ('CCOC(=O)[C@H]1[C@H](C)O[C@@H](O[C@H]2[C@H](N(C)C)[C@@H](O)[C@H](O[C@H]3[C@@H](CC=O)C[C@@H](C)[C@@H](O)CN(C)CCC[C@H](C/C=C/c4ccc5ccccc5c4)OC(=O)C[C@@H](OC(=O)CC)[C@@H]3OC)O[C@@H]2C)C[C@@]1(C)O', 'Streptococcus pneumoniae', 0.13),
  ('CCOC(=O)[C@H]1[C@H](C)O[C@@H](O[C@H]2[C@H](N(C)C)[C@@H](O)[C@H](O[C@H]3[C@@H](CC=O)C[C@@H](C)[C@@H](OC(C)=O)CN(CCCCc4ccccc4)CCCNC(=O)C[C@@H](OC(=O)CC)[C@@H]3OC)O[C@@H]2C)C[C@@]1(C)OC(C)=O', 'Streptococcus pneumoniae', 0.25),
  ('CCOC(=O)[C@H]1[C@H](C)O[C@@H](O[C@H]2[C@H](N(C)C)[C@@H](O)[C@H](O[C@H]3[C@@H](CC=O)C[C@@H](C)[C@@H](O)CN(CCCc4ccnc5ccccc45)CC[C@@H](C)OC(=O)C[C@@H](OC(=O)CC)[C@@H]3OC)O[C@@H]2C)C[C@@]1(C)OC(C)=O', 'Streptococcus pneumoniae', 0.13),
  ('CCC(=O)O[C@@H]1CC(=O)O[C@H](C)C/C=C/C=C/[C@H](OC(C)=O)[C@H](C)C[C@H](CC=O)[C@H](O[C@@H]2O[C@H](C)[C@@H](O[C@H]3C[C@@](C)(OC(C)=O)[C@@H](OC(=O)CC)[C@H](C)O3)[C@H](N(C)C)[C@H]2O)[C@H]1OC [MIOCAMYCIN]', 'Streptococcus pneumoniae', 0.5),
  ('CCOC(=O)[C@H]1[C@H](C)O[C@@H](O[C@H]2[C@H](N(C)C)[C@@H](O)[C@H](O[C@H]3[C@@H](CC=O)C[C@@H](C)[C@@H](O)CN(C)CCC(/C=C/Cc4ccnc5ccccc45)NC(=O)C[C@@H](OC(=O)CC)[C@@H]3OC)O[C@@H]2C)C[C@@]1(C)O (mixture of isomers)', 'Streptococcus pneumoniae', 0.13);

Given item CCOC(=O)[C@H]1[C@H](C)O[C@@H](O[C@H]2[C@H](N(C)C)[C@@H](O)[C@H](O[C@H]3[C@@H](CC=O)C[C@@H](C)[C@@H](O)CN(C)CC(/C=C/Cc4ccnc5ccccc45)CCOC(=O)C[C@@H](OC(=O)CC)[C@@H]3OC)O[C@@H]2C)C[C@@]1(C)O (stereo in doubt; form 1) , the value recorded as its MIC is 0.03

Kindly note the recorded MIC for CCOC(=O)[C@H]1[C@H](C)O[C@@H](O[C@H]2[C@H](N(C)C)[C@@H](O)[C@H](O[C@H]3[C@@H](CC=O)C[C@@H](C)[C@@H](O)CN(C)CCC[C@H](C/C=C/c4cccc5ccccc45)OC(=O)C[C@@H](OC(=O)CC)[C@@H]3OC)O[C@@H]2C)C[C@@]1(C)O , which is 0.06
